Data provenance: patent US10626108B2

System: influenza virus A/Taiwan/1/86 (H1N1)
PROTOCOL_TEXT: organism not typed
Assay type: cell-based
SETTINGS: 72 h; MDCK cells infected with influenza A/Taiwan/1/86 (H1N1), MOI 0.001 or 0.01; CPE via ATP levels three days post-virus exposure
I'd be grateful if you could share measured IC50 for these entries.
Report field: quantity (unit follows the number).

Give reported IC50 value for O=C(O)[C@H]1C2CCC(CC2)[C@@H]1Nc1cnnc(-c2c[nH]c3c(F)cc(F)cc23)n1 (racemic)
130 nM

Please indicate IC50 recorded for "Cc1nc(-c2c[nH]c3c(F)cc(F)cc23)nc(N[C@H]2CCC[C@@H](NC(=O)c3cn(C)cn3)C2)c1F"
1 nM

Find the measured IC50 of "O=C(N[C@H]1CCC[C@@H](Nc2cnnc(-c3c[nH]c4c(F)cc(F)cc34)n2)C1)N1CCCC1" and report it.
8 nM

Supply measured IC50 of "Cc1nc(-c2c[nH]c3ncncc23)nc(N[C@@H]2CCC[C@H](NC(=O)c3ccccn3)C2)c1F" in your reply.
1 nM
